Listed molecules paired with reported Invasion Assay: Mean % Inhibition (parasites), Replicate 3a
test system: C. parvum; format: cell-based, Cryptosporidium parvum; conditions: compound at EC90; single biological replicate 3
metric_name: Invasion Assay: Mean % Inhibition (parasites), Replicate 3a (%)

{"molecule": "CN(C)S(=O)(=O)c1ccc(C(=O)N2CCN(c3ccc4nncn4n3)CC2)cc1", "obs_value": 2}
{"molecule": "CN(C)C[C@H](O)Cn1c2ccc(Br)cc2c2cc(Br)ccc21 (racemic)", "obs_value": 82}
{"molecule": "COc1ccc(NC(=O)N2CCCCN3C(CN(C)C)C(c4ccc(C#Cc5ccccc5)cc4)C3C2)cc1 (centres unmarked)", "obs_value": 1.85}
{"molecule": "Cc1cccc(-n2ncc3c(O)nc(-n4nc(C)cc4NC(=O)c4cc5ccccc5o4)nc32)c1", "obs_value": 9}
{"molecule": "c1ccc(CNc2nc(Nc3ccccc3)nc3ccccc23)cc1", "obs_value": 42}

* * *

test system: C. parvum; assay: Egress, motility, reinvasion assay (PV ratio); details: compound at EC90; single replicate 3
Mark MET only when Egress and Reinvasion Assay: Mean PV ratios (19.5h:6h), Replicate 3a stays strictly below 1. Values equal to the cut-off are NOT MET.

{"compound": "CN(C)S(=O)(=O)c1ccc(C(=O)N2CCN(c3ccc4nncn4n3)CC2)cc1 [D-44]", "qualitative_label": "NOT MET"}
{"compound": "CN(C)C[C@H](O)Cn1c2ccc(Br)cc2c2cc(Br)ccc21 (racemic) [Wiskostatin]", "qualitative_label": "MET"}
{"compound": "CC(=O)O[C@@]12CO[C@@H]1C[C@H](O)[C@@]1(C)C(=O)[C@H](O)C3=C(C)[C@@H](OC(=O)[C@H](O)[C@@H](NC(=O)OC(C)(C)C)c4ccccc4)C[C@@](O)([C@@H](OC(=O)c4ccccc4)[C@H]21)C3(C)C [Docetaxel]", "qualitative_label": "NOT MET"}
{"compound": "CC(=O)Oc1ccccc1C(=O)Nc1ncc([N+](=O)[O-])s1 [Nitazoxanide]", "qualitative_label": "NOT MET"}
{"compound": "CC(=NOCCN)c1cccc(C(C)(C)NC(=O)Nc2ccc(Cl)c(C(F)(F)F)c2)c1 [P257]", "qualitative_label": "MET"}
{"compound": "Cc1cc(/C=C/c2ccc3cc(N(C)C)ccc3[n+]2C)c(C)n1-c1ccccc1 [Pyrvinium pamoate]", "qualitative_label": "MET"}

* * *

tested on: C. parvum; experiment: Egress, motility, reinvasion assay (PV ratio); conditions: compound at EC90; single replicate 2
metric_name: Egress and Reinvasion Assay: Mean PV ratios (19.5h:6h), Replicate 2a

{"compound": "CC(=O)O[C@@]12CO[C@@H]1C[C@H](O)[C@@]1(C)C(=O)[C@H](O)C3=C(C)[C@@H](OC(=O)[C@H](O)[C@@H](NC(=O)OC(C)(C)C)c4ccccc4)C[C@@](O)([C@@H](OC(=O)c4ccccc4)[C@H]21)C3(C)C", "obs_value": 2.25}
{"compound": "c1ccc(CNc2nc(Nc3ccccc3)nc3ccccc23)cc1", "obs_value": 1.59}
{"compound": "CN(C)C[C@H](O)Cn1c2ccc(Br)cc2c2cc(Br)ccc21 (racemic)", "obs_value": 0.98}
{"compound": "c1ccc(CNc2nc(NC3CCCC3)nc3ccccc23)cc1", "obs_value": 1.24}
{"compound": "O=C(Nc1nc(-c2ccccn2)cs1)c1ccccc1Br", "obs_value": 0.21}
{"compound": "Cc1cccc(-n2ncc3c(=O)[nH]c(-n4nc(C)cc4NC(=O)C4CC4)nc32)c1", "obs_value": 0.48}
{"compound": "Cc1cc(/C=C/c2ccc3cc(N(C)C)ccc3[n+]2C)c(C)n1-c1ccccc1 [Pyrvinium pamoate]", "obs_value": 0.85}

* * *

tested on: C. parvum; assay: Egress, motility, reinvasion assay (PV ratio); settings: compound at EC90; single replicate 2
Listed molecules paired with reported Egress and Reinvasion Assay: Mean PV ratios (19.5h:6h), Replicate 2a
metric_name: Egress and Reinvasion Assay: Mean PV ratios (19.5h:6h), Replicate 2a

{"molecule": "Oc1c(CN2CCN(c3ccccc3F)CC2)cc(Br)c2cccnc12", "obs_value": 0.93}
{"molecule": "CC(C)c1c(C(=O)Nc2ccccc2)c(-c2ccccc2)c(-c2ccc(F)cc2)n1CC[C@@H](O)C[C@@H](O)CC(=O)O", "obs_value": 1.82}
{"molecule": "Cc1cccc(-n2ncc3c(=O)[nH]c(-n4nc(C)cc4NC(=O)C4CCCC4)nc32)c1", "obs_value": 0.42}
{"molecule": "[H]/N=C(/NCCCCC)N/N=C/c1c[nH]c2ccc(OC)cc12", "obs_value": 1.06}
{"molecule": "CSc1ccccc1C(=O)Nc1nc(-c2ccccn2)cs1", "obs_value": 0.25}
{"molecule": "Cc1cn(-c2cc(NC(=O)c3ccc(C)c(Nc4nccc(-c5cccnc5)n4)c3)cc(C(F)(F)F)c2)cn1", "obs_value": 1.54}
{"molecule": "O=C(NC(c1ccccc1)c1ccc2cccnc2c1O)c1ccccc1 (stereo not drawn)", "obs_value": 0.10}
{"molecule": "c1ccc(CNc2nc(NCc3ccccc3)c3ccccc3n2)cc1", "obs_value": 1.36}
{"molecule": "COc1ccc(Nc2nc(NCc3ccccc3Cl)c3ccccc3n2)cc1Cl", "obs_value": 1.48}

* * *

test system: C. parvum; test: DNA replication assay (EdU incorporation); type: cell-based, Cryptosporidium parvum; conditions: yes/no grouping by phenotypic assay result; compound at EC90
metric_name: DNA synthesis

{"molecule": "O=c1[nH]c(=O)n([C@H]2C[C@H](O)[C@@H](CO)O2)cc1F [Floxuridine]", "obs_value": "no"}
{"molecule": "Oc1c(C(Nc2ccccn2)c2cccc(Oc3ccccc3)c2)ccc2cccnc12 (stereo not drawn) [A-2]", "obs_value": "yes"}
{"molecule": "c1ccc(CNc2nc(Nc3ccccc3)nc3ccccc23)cc1 [B-1]", "obs_value": "no"}
{"molecule": "Oc1c(CN2CCN(c3ccccc3F)CC2)cc(Br)c2cccnc12 [A-6]", "obs_value": "yes"}
{"molecule": "COc1ccc(Nc2nc(NCc3ccccc3Cl)c3ccccc3n2)cc1Cl [B-13]", "obs_value": "no"}
{"molecule": "O=C(NC(c1ccccc1)c1ccc2cccnc2c1O)c1ccccc1 (stereo not drawn) [A-5]", "obs_value": "yes"}
{"molecule": "c1ccc(CNc2nc(NCc3ccccc3)c3ccccc3n2)cc1 [B-23]", "obs_value": "no"}
{"molecule": "[H]/N=C(/NCCCCC)N/N=C/c1c[nH]c2ccc(OC)cc12 [Tegaserod]", "obs_value": "no"}
{"molecule": "c1ccc(CNc2nc(NC3CCCC3)nc3ccccc23)cc1 [B-5]", "obs_value": "no"}

* * *

Listed compounds paired with reported Egress and Reinvasion Assay: Mean PV ratios (19.5h:6h), Replicate 2a
tested on: C. parvum; experiment: Egress, motility, reinvasion assay (PV ratio); details: compound at EC90; single replicate 2
metric_name: Egress and Reinvasion Assay: Mean PV ratios (19.5h:6h), Replicate 2a

{"compound": "Oc1c(C(Nc2ccccn2)c2cccc(Oc3ccccc3)c2)ccc2cccnc12 (stereo not drawn) [A-2]", "experimental_system": "C. parvum", "obs_value": 0.71}
{"compound": "CN(C)c1ccc(C(=C2C=CC(=[N+](C)C)C=C2)c2ccc(N(C)C)cc2)cc1 [Gentian Violet]", "experimental_system": "C. parvum", "obs_value": 1.73}
{"compound": "CC(=O)Oc1ccccc1C(=O)Nc1ncc([N+](=O)[O-])s1 [Nitazoxanide]", "experimental_system": "C. parvum", "obs_value": 1.77}
{"compound": "O=C(Nc1ccc(Cl)c(Cl)c1)N1CCN(c2ccc3nncn3n2)CC1 [D-28]", "experimental_system": "C. parvum", "obs_value": 1.19}
{"compound": "CCOc1ccc2cc(-c3nn(CC4CCN(C)CC4)c4ncnc(N)c34)ccc2c1 [BKI-1294]", "experimental_system": "C. parvum", "obs_value": 1.18}
{"compound": "NC[C@@H]1O[C@H](O[C@H]2[C@@H](O)[C@H](O[C@@H]3[C@@H](O)[C@H](N)C[C@H](N)[C@H]3O[C@H]3O[C@H](CO)[C@@H](O)[C@H](O)[C@H]3N)O[C@@H]2CO)[C@H](N)[C@@H](O)[C@@H]1O [Paromomycin]", "experimental_system": "C. parvum", "obs_value": 2.11}
{"compound": "CC(=NOCCN)c1cccc(C(C)(C)NC(=O)Nc2ccc(Cl)c(C(F)(F)F)c2)c1 [P257]", "experimental_system": "C. parvum", "obs_value": 0.97}
{"compound": "CN(C)S(=O)(=O)c1ccc(C(=O)N2CCN(c3ccc4nncn4n3)CC2)cc1 [D-44]", "experimental_system": "C. parvum", "obs_value": 2.32}
{"compound": "Cc1cccc(-n2ncc3c(O)nc(-n4nc(C)cc4NC(=O)c4cc5ccccc5o4)nc32)c1 [C-1]", "experimental_system": "C. parvum", "obs_value": 1.08}
{"compound": "C[C@H]1CCC[C@H](C[C@H]2Cc3cc(O)cc(O)c3C(=O)O2)O1 [Cladosporin]", "experimental_system": "C. parvum", "obs_value": 0.83}
{"compound": "CCOc1ccc2cc(-c3nn(CC4CCN(C)CC4)c4ncnc(N)c34)ccc2n1 [BKI-1369]", "experimental_system": "C. parvum", "obs_value": 1.62}
{"compound": "CC(C)/N=c1\\cc2n(-c3ccc(Cl)cc3)c3ccccc3nc-2cc1Nc1ccc(Cl)cc1 [Clofazimine]", "experimental_system": "C. parvum", "obs_value": 1.03}
{"compound": "O=C(CC1NCCCC1O)Cn1cnc2cc(Br)c(Cl)cc2c1=O (stereo not drawn) [Halofuginone]", "experimental_system": "C. parvum", "obs_value": 1.01}
{"compound": "CCC(C)n1ncn(-c2ccc(N3CCN(c4ccc(OCC5COC(Cn6cncn6)(c6ccc(Cl)cc6Cl)O5)cc4)CC3)cc2)c1=O (stereo not drawn) [Itraconazole]", "experimental_system": "C. parvum", "obs_value": 1.33}
{"compound": "O=C(Nc1ccc(Cl)cc1)N1CCN(c2ccc3nncn3n2)CC1 [D-1]", "experimental_system": "C. parvum", "obs_value": 1.70}
{"compound": "O=c1[nH]c(=O)n([C@H]2C[C@H](O)[C@@H](CO)O2)cc1F [Floxuridine]", "experimental_system": "C. parvum", "obs_value": 0.80}
{"compound": "CCOc1ccc(Cl)c2c1B(O)OC2CN (stereo not drawn) [AN6426]", "experimental_system": "C. parvum", "obs_value": 1.05}
{"compound": "COc1ccc(NC(=O)N2CCCCN3C(CN(C)C)C(c4ccc(C#Cc5ccccc5)cc4)C3C2)cc1 (stereo not drawn) [BRD7929]", "experimental_system": "C. parvum", "obs_value": 0.99}
